Assay: NCI Yeast Anticancer Drug Screen. Data for the rad50 strain (AID 155);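 note: 0% = growth of vehicle-only cultures of the same strain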
Details: S. cerevisiae rad50 strain growth inhibition; at 50.0 µM; hits give high values
Protocol: Growth inhibition of yeast strains with defined genetic alterations is measured as a screen for potential anti-cancer activity. Selected strains with alterations in DNA damage repair or cell cycle control were exposed to compounds and growth inhibition was measured relative to vehicle treated controls. The strain used in this assay is rad50
Compounds without any hit were thinned out: in the full panel of roughly 79,000, 15% have a hit.
Reported growth inhibition values for a set of compounds
Report the value in % with no unit label.

Sample answers from the record:
COMPOUND: Nc1nc(N)c2ncn(Cc3c(Cl)cccc3Cl)c2n1
EXPERIMENTAL_ENDPOINT: growth inhibition
RESULT_UNITS: %
ASSAY_VALUE: -3.75
--
COMPOUND: CCCCCCC(=O)OCC
EXPERIMENTAL_ENDPOINT: growth inhibition
RESULT_UNITS: %
ASSAY_VALUE: 16.3
--
COMPOUND: c1ccc(CNc2ccccc2)cc1
EXPERIMENTAL_ENDPOINT: growth inhibition
RESULT_UNITS: %
ASSAY_VALUE: 3.6
--
COMPOUND: CS(=O)(=O)OC1CCCCC1OS(C)(=O)=O (stereo not drawn)
EXPERIMENTAL_ENDPOINT: growth inhibition
RESULT_UNITS: %
ASSAY_VALUE: 3.15
--
COMPOUND: COc1c(C(=O)O)[nH]c(=O)[nH]c1=O
EXPERIMENTAL_ENDPOINT: growth inhibition
RESULT_UNITS: %
ASSAY_VALUE: 4.85

Note to self: growth inhibition recorded for "O=C1OC(c2cccc(Cl)c2)=N/C1=C\c1ccc(Cl)cc1" was 20.4

Note to self: growth inhibition recorded for "CN(C)c1ccc(N=Nc2ccc(C(C)(C)C)cc2)cc1" was -11.3

###

Reported growth inhibition values for a set of compounds
Experiment: NCI Yeast Anticancer Drug Screen. Data for the rad50 strain (AID 155);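 note: 0% = growth of vehicle-only cultures of the same strain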
Conditions: S. cerevisiae rad50 strain growth inhibition; at 50.0 µM; hits give high values
Description: Growth inhibition of yeast strains with defined genetic alterations is measured as a screen for potential anti-cancer activity. Selected strains with alterations in DNA damage repair or cell cycle control were exposed to compounds and growth inhibition was measured relative to vehicle treated controls. The strain used in this assay is rad50
The panel holds about 79,000 compounds, 15% with a hit somewhere; the sample as a whole holds those more often. Calls of active or inactive are those of the source. No stated cut-off is given here; in the data, active means growth inhibition above about 70%; inactive means the rest.

Sample answers from the record:
COMPOUND: CC(O)C(C)[N+](=O)[O-] (stereo unspecified)
ASSAY_VALUE: 9.4% (inactive)

COMPOUND: CCCC(=O)OCc1ccc(Cl)cc1Cl
ASSAY_VALUE: 31.6% (inactive)

Note to self: growth inhibition recorded for "CCCCCCCCCCCCCCCCCC(=O)Nc1nc(N)nc(N)n1" was 11.1% (inactive)

Note to self: growth inhibition recorded for CCCCN(CCCC)C(=O)C(=O)C(C#N)c1ccc(C)cc1 (stereo unspecified) was -7% (inactive)

Note to self: growth inhibition recorded for "O=c1c(N2CCOCC2)c(N2CCOCC2)c1=O" was -21.6% (inactive)

Note to self: growth inhibition recorded for "N=C(N)c1ccc(OCCOc2cccc(N)c2)cc1" was 3.35% (inactive)

Note to self: growth inhibition recorded for "C[Si](C)(C)C#C[I+]c1ccccc1" was -27.6% (inactive)

Note to self: growth inhibition recorded for "C/C(=N/NS(=O)(=O)c1ccc(C)cc1)C(=NO)/C(C)=N\NS(=O)(=O)c1ccc(C)cc1" was 55.6% (inactive)
